All values here come from PubChem BioAssay (NCATS).

test: BET inhibitor-based combinations targeting novel dependencies in MECOM-rearranged (r) AML: OCI-AML3 cell line (AID 2202232); conditions: CellTiter-Glo luminescence, 48 h; OCI-AML3 viability; series mostly up to 46 µM; note: nearly all actives have a fitted effect of over 35% in size
Records with an inconclusive call do not appear. The source made the active and inactive calls. Calls come from the whole dose curve; as a rule, active = well fitted inhibition curve with a large enough effect; inconclusive = small, poorly fitted or top-dose-only effect; inactive = no such curve, though single readings can be large or run the other way.
Field 'call' accepts active, inactive

For orientation, consider the following solved cases.
C[C@@H](Oc1ccc2[nH]nc(/C=C/c3cnn(CCO)c3)c2c1)c1c(Cl)cncc1Cl | active
COc1ccc(-c2nc(N3CCOCC3)c3sc(CN(C)c4ncc(C(=O)NO)cn4)cc3n2)cn1 | active
C[C@H]1CNCCCN1S(=O)(=O)c1cccc2cncc(F)c12 | inactive

Ask: Please share the test call associated with `COc1ccc(N2C(=O)N(c3c(C)cccc3Cl)Cc3cnc(Nc4ccc(C5CCN(C)CC5)cc4OC)nc32)nc1` .
Reply: active

Ask: Please share the test call associated with `C/C=C/C/C=C/CCC(=O)[C@H]1O[C@H]1C(N)=O` .
Reply: active

Ask: Please share the test call associated with `CN1CC(=O)N2[C@H](c3ccc4c(c3)OCO4)c3[nH]c4ccccc4c3C[C@@H]2C1=O` .
Reply: inactive

Ask: Please share the test call associated with COc1cc(O)c2c(c1)C1OC1C[C@H](O)[C@H](O)C(=O)C=CC[C@H](C)OC2=O (stereo partly specified) .
Reply: active

Ask: Please share the test call associated with `CC(C)=CCC[C@](C)(O[C@@H]1O[C@H](CO[C@@H]2O[C@H](CO)[C@@H](O)[C@H](O)[C@H]2O)[C@@H](O)[C@H](O)[C@H]1O)[C@H]1CC[C@]2(C)[C@@H]1[C@H](O)C[C@@H]1[C@@]3(C)CC[C@H](O[C@@H]4O[C@H](CO)[C@@H](O)[C@H](O)[C@H]4O[C@@H]4O[C@H](CO)[C@@H](O)[C@H](O)[C@H]4O)C(C)(C)[C@@H]3CC[C@]12C` .
Reply: inactive

Ask: Please share the test call associated with `C[C@]12CCC3=C4CCC(=O)C=C4CC[C@H]3[C@@H]1CC[C@@]2(O)CC#N` .
Reply: inactive

Ask: Please share the test call associated with `O=C(NC1CC1)c1cccc(-c2ccc3c(NC(=O)C4CC4)n[nH]c3c2)c1` .
Reply: active

* * *

assay: BET inhibitor-based combinations targeting novel dependencies in MECOM-rearranged (r) AML: OCI-AML3 cell line (AID 2202232); conditions: CellTiter-Glo luminescence, 48 h; OCI-AML3 viability; series mostly up to 46 µM; note: nearly all actives have a fitted effect of over 35% in size
Inconclusive results are not listed. Activity calls are given as the source filed them. The call rests on the fitted dose curve; in most records, active means well fitted inhibition curve with a large enough effect; inconclusive means small, poorly fitted or top-dose-only effect; inactive means no such curve, though single readings can be large or run the other way.
Field 'call' accepts active, inactive

O=C1NC(=O)/C(=C/c2ccc3nccc(-c4ccncc4)c3c2)S1 | active
CC[C@H](CC[C@@H](C)[C@H]1CC[C@H]2[C@@H]3CC=C4C[C@@H](O)CC[C@]4(C)[C@H]3CC[C@]12C)C(C)C | inactive
C=C1C(=O)O[C@H]2C[C@H](C)C(/C=C/C(C)=O)=CC[C@H]12 | active
C=C[C@H]1CN2CCC1C[C@@H]2C(O)c1ccnc2ccc(OC)cc12 (stereo partly specified) | inactive

Ask: Please share the test call associated with `CN[C@@H](C)C(=O)N[C@@H]1C(=O)N(Cc2c(C)ccc3ccccc23)c2ccc(C#N)cc2N(C(C)=O)[C@H]1C` .
Reply: inactive

Ask: Please share the test call associated with `O=C(CO)N1CCC(c2[nH]nc(-c3ccc(Cl)cc3)c2-c2ccncn2)CC1` .
Reply: inactive

* * *

experiment: BET inhibitor-based combinations targeting novel dependencies in MECOM-rearranged (r) AML: HNT-34 cell line (AID 2202234); conditions: HNT-34 AML viability, CellTiter-Glo luminescence, 48 h; series mostly up to 46 µM; note: nearly all actives have a fitted effect of over 35% in size
Inconclusive results are not listed. Activity calls are given as the source filed them. The call rests on the fitted dose curve; in most records, active means well fitted inhibition curve with a large enough effect; inconclusive means small, poorly fitted or top-dose-only effect; inactive means no such curve, though single readings can be large or run the other way.
Field 'call' accepts YES = active, NO = inactive

Ask: Please share the test call associated with `Cn1c(NCCN(CCO)CCCc2ccc([N+](=O)[O-])cc2)cc(=O)n(C)c1=O` .
Reply: NO

Ask: Please share the test call associated with `CC(=O)Nc1cc(Oc2ccc3c(nc(Nc4ccc(F)cc4F)n3C)c2C)ccn1` .
Reply: YES

Ask: Please share the test call associated with CC(C)(O)C1CCC(Nc2ccc3ncc(-c4cccc(C(F)(F)F)c4)n3n2)CC1 (configuration not stated) .
Reply: YES

Ask: Please share the test call associated with `O=C(O)CNC(=O)c1nc(Cl)c2ccccc2c1O` .
Reply: NO

Ask: Please share the test call associated with `COc1cc2nc(-c3ccc(N4CCN(C)CC4)cc3)nc(NCCN3CCOCC3)c2cc1OC` .
Reply: YES

Ask: Please share the test call associated with `C[C@]12CCCN1CC1=NNC(=O)c3cc(F)cc4[nH]c2c1c34` .
Reply: YES

Ask: Please share the test call associated with `Cc1[nH]c(/C=C2\C(=O)Nc3ccc(S(=O)(=O)Cc4c(Cl)cccc4Cl)cc32)c(C)c1C(=O)N1CCC[C@@H]1CN1CCCC1` .
Reply: YES

* * *

test: BET inhibitor-based combinations targeting novel dependencies in MECOM-rearranged (r) AML: MV-4-11 cell line (AID 2202233); settings: MV-4-11 AML viability, CellTiter-Glo luminescence, 48 h; series mostly up to 46 µM; note: nearly all actives have a fitted effect of over 45% in size; note: potency is the fitted concentration of half-maximal effect
Records with an inconclusive call do not appear. Active and inactive are the calls of the source. Calls follow the shape of the dose curve; as a rule, active = well fitted inhibition curve with a large enough effect; inconclusive = small, poorly fitted or top-dose-only effect; inactive = no such curve, though single readings can be large or run the other way.
readout.name: Potency

Please review the entries below; each comes with its answer.
C/C(=N\NC(=O)c1cccc(S(=O)(=O)N2CCOCC2)c1)c1cc(Cl)ccc1O | 5.9 µM (active)
C[C@@H](O)[C@@H]1NC(=O)[C@H](CCCCN)NC(=O)[C@@H](Cc2c[nH]c3ccccc23)NC(=O)[C@H](Cc2ccccc2)NC(=O)[C@@H](NC(=O)[C@H](N)Cc2ccccc2)CSSC[C@@H](C(=O)N[C@H](CO)[C@@H](C)O)NC1=O | inactive
CONC(=O)c1ccccc1Nc1cc(Nc2cc(C)nn2C(C)C)ncc1Cl | 14.8 µM (active)
COc1cc(OC)cc(N(CCNC(C)C)c2ccc3ncc(-c4cnn(C)c4)nc3c2)c1 | 16.6 µM (active)
COc1ccc(N2C(=O)N(c3c(C)cccc3Cl)Cc3cnc(Nc4ccc(C5CCN(C)CC5)cc4OC)nc32)nc1 | 2.95 µM (active)

Note to self: Potency recorded for `CN(C)C/C=C/C(=O)Nc1ccc(C(=O)N2CCC[C@@H](Nc3ncc(Cl)c(-c4c[nH]c5ccccc45)n3)C2)cc1` was 0.235 µM (active)

Note to self: Potency recorded for `C[C@@H](OC[C@@]1(c2ccccc2)CC[C@]2(CCC(=O)N2)CN1)c1cc(C(F)(F)F)cc(C(F)(F)F)c1` was 20.9 µM (active)

Note to self: Potency recorded for `Cn1cc(-c2cc(Oc3cc(F)c(NC(=O)C4(C(=O)Nc5ccccc5)CC4)cc3F)ccn2)cn1` was 0.742 µM (active)

* * *

biological target: Retinaldehyde dehydrogenase 3 (Homo sapiens); test: qHTS for Inhibitors of the Aldehyde Dehydrogenase Family (ALDH1A3) Primary screen (AID 2061315); conditions: ALDH inhibition qHTS; series mostly up to 56 µM
Records with an inconclusive call do not appear. Activity calls are given as the source filed them. The call rests on the fitted dose curve; in most records, active means well fitted inhibition curve with a large enough effect; inconclusive means small, poorly fitted or top-dose-only effect; inactive means no such curve, though single readings can be large or run the other way.
readout.name: activity change, negative = inhibition

Cn1nnnc1Sc1ncnc2scc(-c3ccccc3F)c12 | inactive
COCCCc1cc(F)c(S(=O)(=O)N2CCN(S(=O)(=O)c3ccc4c(c3)OCCO4)CC2)cc1F | inactive
CC1(C)CC(C(=O)Nc2ccc([S+](=O)([O-])Nc3nccs3)cc2)C1 | inactive
Cc1c([S+](=O)([O-])N2CCN([S+](=O)([O-])c3c(F)cccc3F)CC2)sc2ccc(Cl)cc12 | inactive
Cc1ccc(S(=O)(=O)Nc2cnccc2C(=O)Nc2nc(-c3ccccc3Cl)cs2)cc1 | inactive

Note to self: activity change, negative = inhibition recorded for COc1ccccc1C1c2c(ncn(-c3ccccc3)c2=N)Oc2ccc3ccccc3c21 (stereo not given) was inactive

Note to self: activity change, negative = inhibition recorded for `N#Cc1c(-c2cccc(Cl)c2)no[n+]1[O-]` was inactive

Note to self: activity change, negative = inhibition recorded for O=C1CCCC2=C1C(c1[nH]ncc1Cl)N=C(Nc1nccs1)N2 (stereo not given) was inactive

Note to self: activity change, negative = inhibition recorded for `COc1cc(OC)cc(C2=Nn3c(nnc3-c3ccccc3OC)SC2)c1` was inactive

Note to self: activity change, negative = inhibition recorded for `CCOC(=O)c1ccc(-c2ccc3ncnc(NCc4csc(C)n4)c3c2)o1` was inactive

* * *

assay: qHTS for Inhibitors of the Aldehyde Dehydrogenase Family (ALDH1A2, ALDH1A3, ALDH2, ALDH3A1) (AID 2061307); settings: ALDH inhibition qHTS; series mostly up to 50.3 µM; note: nearly all actives have a fitted effect of over 50% in size
Records with an inconclusive call do not appear. Calls of active or inactive are those of the source. Calls follow the shape of the dose curve; as a rule, active = well fitted inhibition curve with a large enough effect; inconclusive = small, poorly fitted or top-dose-only effect; inactive = no such curve, though single readings can be large or run the other way.
Field 'call' accepts active, inactive

Ask: Please share the test call associated with `O=C1Cc2cc(S(=O)(=O)N3CCNCC3)ccc2N1` .
Reply: inactive

Ask: Please share the test call associated with NCC(CNc1nc(Nc2cccc(NC(=O)N3CCCC3)c2)ncc1I)C(=O)c1cccs1 (stereo unspecified) .
Reply: inactive

Ask: Please share the test call associated with `NC(=O)C1CCN(c2nc(-c3ccc4ccccc4c3)cs2)CC1` .
Reply: active
